B1: Azoarcus group I ribozyme (parent)
chain: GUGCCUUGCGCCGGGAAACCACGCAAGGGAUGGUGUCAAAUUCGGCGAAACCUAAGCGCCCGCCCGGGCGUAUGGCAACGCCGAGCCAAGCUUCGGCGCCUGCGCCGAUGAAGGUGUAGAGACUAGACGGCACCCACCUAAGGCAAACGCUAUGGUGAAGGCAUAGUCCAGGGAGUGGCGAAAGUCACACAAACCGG

Variants of: B1
measurementNotes: reverse-splicing fitness (ratio to wild type); higher = more active; in vitro selection; Mg2+ level not given
metric: reverse-splicing fitness

[
  {
    "mutationNotation": "C82U A111U A120G A145C C169A U176A",
    "measuredNumber": 0.00993
  },
  {
    "mutationNotation": "A111U A120G A145G C169G U176A",
    "measuredNumber": 0.0455
  },
  {
    "mutationNotation": "C82U A111G A120C A145C C150A C169G U176G",
    "measuredNumber": 0.00451
  },
  {
    "mutationNotation": "C82U A120U A145G C169U U176A",
    "measuredNumber": 0.00293
  },
  {
    "mutationNotation": "C82U A111U A120U A145U C150G C169G",
    "measuredNumber": 0.00274
  },
  {
    "mutationNotation": "C82A A111U C150G U176C",
    "measuredNumber": 0.015
  },
  {
    "mutationNotation": "A145G C150G U176C",
    "measuredNumber": 0.371
  },
  {
    "mutationNotation": "C82A A111U A145G C150A",
    "measuredNumber": 0.0371
  },
  {
    "mutationNotation": "A111G C150A U176C",
    "measuredNumber": 0.264
  },
  {
    "mutationNotation": "C82A A111G C150U",
    "measuredNumber": 0.205
  },
  {
    "mutationNotation": "C82A A111U C150G C169G U176A",
    "measuredNumber": 0.00782
  },
  {
    "mutationNotation": "C82A A120G C150G C169A U176A",
    "measuredNumber": 0.0116
  },
  {
    "mutationNotation": "C82G A111C A145U C150G U176A",
    "measuredNumber": 0.0124
  },
  {
    "mutationNotation": "C82G A111U A120U A145C C150U C169U U176A",
    "measuredNumber": 0.00361
  },
  {
    "mutationNotation": "C82U A111C A120U A145C C150G C169A U176A",
    "measuredNumber": 0.00289
  },
  {
    "mutationNotation": "C82G A111U A120U A145G C150A U176C",
    "measuredNumber": 0.00757
  },
  {
    "mutationNotation": "C82A A111C A120C A145U C169U",
    "measuredNumber": 0.0133
  },
  {
    "mutationNotation": "C82U A120C C150A C169U U176A",
    "measuredNumber": 0.0175
  },
  {
    "mutationNotation": "C82A A111C A120C A145G C150A C169U",
    "measuredNumber": 0.00994
  },
  {
    "mutationNotation": "A111C A145U C150A U176G",
    "measuredNumber": 0.0589
  },
  {
    "mutationNotation": "C82A A111C A120C A145U C150G C169G U176G",
    "measuredNumber": 0.00725
  },
  {
    "mutationNotation": "C82A A111U A145U C150A U176G",
    "measuredNumber": 0.00989
  }
]

Provenance of the data: the RNAGym collection of RNA variant scans (doi:10.1093/molbev/msab373)
